Below: a set of entries, each annotated with reported GI50.
- Test system: 92.1 uveal melanoma cell line (heterozygous GNAQ Q209L)
- measurement-description: Cell proliferation assay (resazurin cell viability), 92.1 cell line
- Type: cell-based
- condition-set: 92.1 cell line, replicate 1; read-out: GI50 92.1 Rep. 1
Starred links: 1 amine or outer side, 2 acyl side, 3 side chain; linkers in the order of their positions; H or OH if unused. Positions of bridges follow the written chain, without caps; N, C: chain ends. Non-standard residues stand in square brackets, D forms with d. Residues, ends and D or L forms follow the SMILES beside them. *: point of attachment. Leu(3R-OH,Nα-propionyl) = CCC(=O)N[C@H](C(=O)*)[C@H](O)C(C)C; X1 = CC(C)[C@@H](O[*:3])[C@H](N[*:1])C(=O)[*:2]; X5 = CSC[C@@H](O[*:3])[C@H](N[*:1])C(=O)[*:2]; NMeT = CN[C@H](C(=O)O)[C@@H](C)O; dPhLac = O=C(O)[C@H](O)Cc1ccccc1; NMeA = CN[C@@H](C)C(=O)O; NMeDha = C=C(NC)C(=O)O
Write the value in nM as a bare number.

C=C1C(=O)N[C@@H](C)C(=O)N(C)[C@@H](C)C(=O)N[C@@H]([C@H](OC(=O)[C@@H](NC(=O)CC)[C@H](O)C(C)C)C(C)C)C(=O)N(C)[C@@H]([C@@H](C)OC)C(=O)O[C@H](CSC)[C@H](NC(C)=O)C(=O)O[C@H](Cc2ccccc2)C(=O)N1C [Compound 2] (Ac-[X5][dPhLac][NMeDha]A[NMeA][X1](Leu(3R-OH,Nα-propionyl))[NMeT](Me); ester 1-C): 8
C=C1C(=O)N[C@@H](C)C(=O)N(C)[C@@H](C)C(=O)N[C@@H]([C@H](OC(=O)[C@@H](NC(=O)CC)[C@H](O)C(C)C)C(C)C)C(=O)N(C)[C@@H]([C@@H](C)OC)C(=O)O[C@H](C)[C@H](NC(C)=O)C(=O)O[C@H](Cc2ccccc2)C(=O)N1C [Compound 14] (Ac-T[dPhLac][NMeDha]A[NMeA][X1](Leu(3R-OH,Nα-propionyl))[NMeT](Me); ester 1-C): 2.95

API: the following record is the query input.
[in] Request: GI50, test system 92.1 uveal melanoma cell line (heterozygous GNAQ Q209L), entry C=C1C(=O)N[C@@H](C)C(=O)N(C)[C@@H](C)C(=O)N[C@@H]([C@H](OC(=O)[C@@H](NC(=O)CC)[C@H](O)C(C)C)C(C)C)C(=O)N(C)[C@@H]([C@@H](C)OC)C(=O)O[C@H](C(C)C)[C@H](NC(C)=O)C(=O)O[C@H](Cc2ccccc2)C(=O)N1C [Compound (A1), FR900359] (Ac-[X1][dPhLac][NMeDha]A[NMeA][X1](Leu(3R-OH,Nα-propionyl))[NMeT](Me); ester 1-C)
[out] 0.46

These data points were gathered from patent US20240252668A1.
